Assign inhibition to each entry below.
Target: 5-hydroxytryptamine receptor 4 (Homo sapiens, UniProt Q13639)
Sequence (Q13639 whole entry): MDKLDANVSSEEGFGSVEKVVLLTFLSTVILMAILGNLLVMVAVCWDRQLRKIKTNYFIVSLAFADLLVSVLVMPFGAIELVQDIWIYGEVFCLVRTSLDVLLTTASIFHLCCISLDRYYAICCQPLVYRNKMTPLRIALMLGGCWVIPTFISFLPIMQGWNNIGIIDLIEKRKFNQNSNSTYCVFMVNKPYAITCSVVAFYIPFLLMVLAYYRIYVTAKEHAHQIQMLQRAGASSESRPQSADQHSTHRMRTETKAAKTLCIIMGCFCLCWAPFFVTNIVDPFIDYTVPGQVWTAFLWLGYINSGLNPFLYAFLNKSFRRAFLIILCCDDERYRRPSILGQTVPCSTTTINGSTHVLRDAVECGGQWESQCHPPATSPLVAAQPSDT
Assay: Displacement of [3H]-GR113808 from recombinant human 5-HT4BR expressed in membranes at 1 uM after 60 mins relative to control
# value in %; strip the unit string

Entry O=C(CCC1CCN(CC2CCCCC2)CC1)c1ccc2c(ccn2Cc2ccccc2)c1 — recorded inhibition = 42

The value of inhibition measured for the compound COc1c(C(=O)CCC2CCN(CC3CCCCC3)CC2)cc(Cl)c2[nH]ccc12 turned out to be 100

For COc1c(C(=O)CCC2CCN(CC3CCCCC3)CC2)ccc2[nH]ccc12 the compound record lists inhibition as 100

###

Molecular target: Sigma non-opioid intracellular receptor 1 (Homo sapiens)
Sequence (Q99720 whole entry): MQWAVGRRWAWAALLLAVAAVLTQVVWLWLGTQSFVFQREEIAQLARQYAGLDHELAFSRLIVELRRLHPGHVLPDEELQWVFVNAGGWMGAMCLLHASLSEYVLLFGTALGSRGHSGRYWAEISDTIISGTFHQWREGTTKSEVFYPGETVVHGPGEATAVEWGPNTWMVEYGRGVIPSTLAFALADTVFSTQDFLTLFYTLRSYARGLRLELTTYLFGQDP
Test: Displacement of [3H]-(+)-pentazocine from sigma-1 receptor in human Jurkat cell membranes after 2 hrs by liquid scintillation counting method
measurement name: Ki (nM)
Quick reminder: number only, in nM, skip the unit.

Bench note, Sigma non-opioid intracellular receptor 1 (Homo sapiens): COc1cc(N)c(Cl)cc1C(=O)CCC1CCN(CC2CCCCC2)CC1 , Ki reads 51

Bench note, Sigma non-opioid intracellular receptor 1 (Homo sapiens): COc1c(C(=O)CCC2CCN(Cc3ccccc3)CC2)cc(Cl)c2[nH]ccc12 , Ki reads 5.7

Result for COc1c(C(=O)CCC2CCN(CC3CCCCC3)CC2)cc(Cl)c2[nH]ccc12 , tested on Sigma non-opioid intracellular receptor 1 (Homo sapiens), Ki: 5.1

Measured on Sigma non-opioid intracellular receptor 1 (Homo sapiens), O=C(CCC1CCN(CC2CCCCC2)CC1)c1cc(Cl)c2[nH]ccc2c1 has a documented Ki of 5.1

So the reported Ki for O=C(CCC1CCN(Cc2ccccc2)CC1)c1ccc2[nH]ccc2c1 , on Sigma non-opioid intracellular receptor 1 (Homo sapiens), turned out to be 3.3

###

Target: 5-hydroxytryptamine receptor 4 (Homo sapiens, UniProt Q13639)
Assay: Displacement of [3H]-GR113808 from recombinant human 5-HT4BR expressed in membranes after 60 mins
measurement name: pKi
Schema: pKi number; meaning minus log10 of the concentration expressed in molar units.

Reported pKi for COc1c(C(=O)CCC2CCN(CC3CCCCC3)CC2)ccc2[nH]ccc12 was 7.29

Input COc1c(C(=O)CCC2CCN(CC3CCCCC3)CC2)cc(Cl)c2[nH]ccc12 . Output pKi: 7.39

Sure, the documented pKi for O=C(CCC1CCN(Cc2ccccc2)CC1)c1ccc2[nH]ccc2c1 is 6.77

Note to self: pKi recorded for CCCCN1CCC(CCC(=O)c2ccc3[nH]ccc3c2)CC1 was 7.30

// field: pKi; key: O=C(CCC1CCN(CC2CCCC2)CC1)c1ccc2[nH]ccc2c1 ; value = 7.60

Per the record, COc1c(C(=O)CCC2CCN(Cc3ccccc3)CC2)cc(Cl)c2[nH]ccc12 has pKi of 6.82

Memo: O=C(CCC1CCN(CC2CCCCC2)CC1)c1ccc2[nH]ccc2c1 , reported pKi: 7.43

Documented pKi of O=C(CCC1CCN(CC2CCCCC2)CC1)c1cc(Cl)c2[nH]ccc2c1 : 7.43

###

Molecular target: 5-hydroxytryptamine receptor 4 (Homo sapiens)
Assay: Displacement of [3H]-GR113808 from recombinant human 5-HT4BR expressed in membranes at 1 uM after 60 mins relative to control
measurement name: inhibition (%)
Give your result in % as a bare value.

Entry CCCCN1CCC(CCC(=O)c2ccc3[nH]ccc3c2)CC1 ; inhibition = 97

Documented inhibition of O=C(CCC1CCN(Cc2ccccc2)CC1)c1ccc2[nH]ccc2c1 : 90

inhibition measured on O=C(CCC1CCN(CC2CCCC2)CC1)c1ccc2[nH]ccc2c1 = 100

Field inhibition (entry COc1cc2c(cc1OC)C(=O)C(CC1CCN(Cc3ccccc3)CC1)C2 (stereo not given) ) reads 10

inhibition for O=C(CCC1CCN(CC2CCCCC2)CC1)c1cc(Cl)c2[nH]ccc2c1 is 100

Value of measured inhibition for the entry COc1c(C(=O)CCC2CCN(Cc3ccccc3)CC2)cc(Cl)c2[nH]ccc12 : 96

# inhibition (compound: COc1c(C(=O)CCC2CCN(CC3CCCCC3)CC2)cc(Cl)c2c1ccn2S(=O)(=O)c1ccccc1 ) is 62

inhibition recorded for this compound, O=C(CCC1CCN(CC2CCCCC2)CC1)c1ccc2[nH]ccc2c1 , is 100

Entry COc1c(C(=O)CCC2CCN(Cc3ccccc3)CC2)cc(Cl)c2[nH]c([Si](C)(C)C)cc12 ; inhibition = 62

Just so you know, measured inhibition for CCCCN1CCC(CCC(=O)c2cc(Cl)c(N)cc2OC)CC1 came out at 100
